Data provenance is PubChem BioAssay.

TARGET_OR_SYSTEM: Calmodulin-1 (Homo sapiens) (UniProt P0DP23)
PROCEDURE_TEXT: CALM1 binders on microarrays, EGTA buffer, profiling panel, biochemical, small-molecule microarray, Cy5-labelled CALM1 (AID 1111);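 further: labelled calmodulin applied in Tris saline Tween buffer holding calcium plus EGTA and DTT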
TEST_CONDITIONS: Cy5-CALM1 binding fluorescence, higher = more signal

[
  {
    "MOLECULE": "O=C1C[C@@H](O)[C@@H](O)[C@@H]2[C@@H]3C(=O)N(Cc4ccccc4)C(=O)[C@@H]3CC[C@@H]12",
    "composite z-score": -0.0573
  },
  {
    "MOLECULE": "CCOC(=O)[C@H](Cc1ccccc1)NC(=O)CCC1CC(OC(=O)NCc2cccc3ccccc23)CC2(CCCC(COC(=O)NCc3cccc(C(F)(F)F)c3)O2)O1 (some centres undefined)",
    "composite z-score": 0.716
  },
  {
    "MOLECULE": "CON=C1[C@H]2CCn3c(=O)n(-c4ccccc4)c(=O)n3[C@H]2[C@H](O)[C@@H]2O[C@H]12",
    "composite z-score": -0.345
  },
  {
    "MOLECULE": "CCOC(=O)[C@H](Cc1ccccc1)NC(=O)CCC1CC(OC(=O)NCCc2ccc(F)cc2)CC2(CCCC(COC(=O)NCc3ccccc3)O2)O1 (some centres undefined)",
    "composite z-score": 0.774
  }
]
